Data origin: patent US9290476B2

biological target: human RORγt LBD (Homo sapiens (Human)); experiment: RORγt reporter assay (GAL4-RORγt LBD luciferase in HEK293T cells); format: cell-based; conditions: HEK-293T, read-out: RORγt reporter Assay, % inhibition @ 6 μM, HEK293T cells, 6 μM
Sequence (P51449 258-518): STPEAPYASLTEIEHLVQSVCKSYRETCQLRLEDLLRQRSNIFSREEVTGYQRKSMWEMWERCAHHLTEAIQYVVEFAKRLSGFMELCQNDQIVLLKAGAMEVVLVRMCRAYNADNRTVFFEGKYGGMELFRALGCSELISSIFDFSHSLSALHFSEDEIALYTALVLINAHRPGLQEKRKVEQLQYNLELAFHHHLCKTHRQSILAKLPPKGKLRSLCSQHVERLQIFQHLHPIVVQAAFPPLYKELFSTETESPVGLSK
parameter-measured: inhibition at 6 µM (%)
I only need the number, in %, no unit after it.

stdin: Quick one: inhibition at 6 µM of COc1ccc(Cc2c(Cl)nc3ccc(C(O)(c4cccnc4)c4cccc(Cl)c4)cc3c2Cl)cc1 (stereo not drawn) [Example 6] ?
stdout: 96

stdin: Query Cc1nc2ccc(C(O)(c3ccc(Cl)cc3)c3cncn3C)cc2c(C)c1Cc1ccccc1 (stereo not drawn) [Example 50] next
stdout: 71

stdin: Query COc1nc2ccc(C(O)(c3ccc(C(F)(F)F)nc3)c3cncn3C)cc2c(Cl)c1Cc1cc2ccccc2s1 (single isomer, unassigned) [Example 37B] next
stdout: 99

stdin: Query Cn1cncc1C(O)(c1ccc(C(F)(F)F)nc1)c1ccc2nc(N3CCC3)c(Cc3ccc(-n4cccn4)cc3)c(Cl)c2c1 (stereo not drawn) [Example 68A] next
stdout: 99

stdin: Query COc1nc2ccc(C(O)(c3ccccc3)C3CCN(C(C)=O)CC3)cc2c(Cl)c1Cc1ccc(-n2cccn2)cc1 (single isomer, unassigned) [Example 83B] next
stdout: 100

stdin: Query COc1nc2ccc(C(O)(c3ccc(F)cc3)c3cncn3C)cc2c(Cl)c1Cc1ccc(S(C)(=O)=O)cc1 (single isomer, unassigned) [Example 54B] next
stdout: 86
